Measurement Target: 5-hydroxytryptamine receptor 1A (Rattus norvegicus)
Sequence (P19327 whole entry): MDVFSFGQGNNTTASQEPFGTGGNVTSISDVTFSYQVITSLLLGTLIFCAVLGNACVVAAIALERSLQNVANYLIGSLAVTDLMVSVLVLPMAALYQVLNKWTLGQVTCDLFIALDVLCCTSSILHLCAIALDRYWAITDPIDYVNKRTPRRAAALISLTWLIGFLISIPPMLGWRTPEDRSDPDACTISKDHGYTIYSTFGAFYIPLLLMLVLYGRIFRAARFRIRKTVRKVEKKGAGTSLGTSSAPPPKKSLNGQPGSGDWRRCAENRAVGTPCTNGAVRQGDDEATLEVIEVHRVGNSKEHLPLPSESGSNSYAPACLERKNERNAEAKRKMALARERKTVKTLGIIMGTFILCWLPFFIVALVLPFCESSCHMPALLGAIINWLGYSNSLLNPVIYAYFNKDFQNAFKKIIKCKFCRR
Method Description: Affinity in displacing [3H]8-OH-DPAT from rat hippocampal 5-HT1A receptor.
Type: tissue-based, Hippocampus
In this section, each of the compounds is paired with its reported Ki.
Please state the figure in nM; there is no need to write the unit.

CC[C@@H](C)NC(=O)[C@@H]1C=C2c3cccc4[nH]cc(c34)C[C@H]2N(C)C1	2.01

Item under review: CCN(CC)C(=O)[C@@H]1C=C2c3cccc4[nH]cc(c34)C[C@H]2N(C)C1 [LYSERGIDE] . Reported Ki?
5.05
